Source of measurements: ChEMBL document CHEMBL3352748

Quick reference for IC50 among some compounds
- Test system: Plasmodium falciparum
- TEST PROTOCOL: Antiplasmodial activity against schizont blood stage Plasmodium falciparum
- Type: functional, organism-based
EXPERIMENTAL ENDPOINT: IC50 (nM)

INSERT INTO assay_data (structure_notation, result_comparator, number) VALUES
  ('CN(C(=O)c1cn2c(-c3ccc(C(F)(F)F)cc3)cnc2cn1)c1ccc(Cl)nc1', '=', 275),
  ('CN(C(=O)c1cn2c(-c3ccc(-c4nnc(N)s4)cc3)cnc2cn1)c1ccc(C#N)cc1', '=', 22),
  ('CN(C(=O)c1ccc2ncc(-c3ccc(C#N)cc3)n2c1)c1ccccc1', '=', 600),
  ('Cc1ccc(N(C)C(=O)c2cn3c(-c4ccc(C(F)(F)F)cc4)cnc3cn2)nn1', '>', 10000),
  ('CN1CCC(N(C)C(=O)c2cn3c(-c4ccc(C(F)(F)F)cc4)cnc3cn2)CC1', '>', 10000),
  ('CNC(=O)c1ccc(-c2cnc3cnc(C(=O)N(C)c4ccc(C#N)cc4)cn23)cc1', '=', 131),
  ('CN(Cc1ccc(F)cc1)C(=O)c1cn2c(-c3ccc(C(F)(F)F)cc3)cnc2cn1', '>', 10000),
  ('CN(C(=O)c1ccc2ncc(-c3ccc(C(F)(F)F)cc3)n2c1)c1ccc(C#N)cc1', '=', 11),
  ('CN(C(=O)c1cn2c(-c3ccc(C(F)(F)F)cc3)cnc2cn1)c1nc2ccccc2s1', '=', 9580);
